experiment: yeast display, Sf9 membrane polyspecificity reagent, FACS + sequencing; frameworks hold sequencing errors

>  <SEQUENCE_DATA>
QVQLVESGGGLVQAGGSLRLSCAASGFTYGANTMGWYRQAPGKERELVADISVRGDRTSYADSVKGRFTISRDNAKNTVYLPMNSLKPEDTAVYYCATDIYQHAKRRYDYWGQGTQVTVSS

>  <polyreactivity (PSR sort gate)>
low polyreactivity

$$$$
>  <SEQUENCE_DATA>
QVQLVESGGGLVQAGGSLRLSCAASGRIFKYYVMGWYRQAPGKERELVAGISSSGVSTYYADSVKGRFTISRDNAKNTVYLQMNSLKPEDTAVYYCNAKSRTGYGRGDYWGQGTQVTVSS

>  <polyreactivity (PSR sort gate)>
high polyreactivity

$$$$
>  <SEQUENCE_DATA>
QVQLVESGGGLVQAGGSLRLSCAASGIIFPLYAMGWYRQAPGKDRELVADITRVGSTYYADSVKGRFTISRDNAKNTVYLQMNSLKPEDTAVYYCNKQKRWTYSHYFPTTYDYWGQGTQVTVSS

>  <polyreactivity (PSR sort gate)>
high polyreactivity

$$$$
>  <SEQUENCE_DATA>
QVQLVESRGGLVQAGGSLRLSCAASGIIFFKYAMGWYRQAPGKERELVAAISIDGSTNYADSVKGRFTISRDNAKNTVYLQMNSLKPEDTAVYYCNAKRYGFFYWQGDYWGQGTQVTVSS

>  <polyreactivity (PSR sort gate)>
low polyreactivity

$$$$
